What AUC of viability dose-response curve was measured for each of the following?
Tested on: NOMO1
method: AUC of viability dose-response curve (% viability x log10 dose units); higher = less sensitive
details: RPMI 5 mM glucose + 10% dialyzed FBS; 48 h

The examples below pair each entry with its known result.
CCOC(=O)N1CCN(/[N+]([O-])=N/Oc2ccc([N+](=O)[O-])cc2[N+](=O)[O-])CC1 412
O=C(/C=C/c1cccc([S+](=O)([O-])Nc2ccccc2)c1)NO 397

Could you now consider this next compound?
Q: Form field: reported AUC of viability dose-response curve of CC(C)Oc1cc(Nc2nc(N[C@@H](C)c3ccc(F)cn3)ncc2Cl)n[nH]1
Result: 412

====

What cell viability was measured for each of the following?
Tested on: NOMO1
method: cell viability relative to DMSO control; higher = less cytotoxic
details: RPMI 5 mM glucose + 10% dialyzed FBS; 48 h; 15.4 µM
Numbers only, in %.

The examples below pair each entry with its known result.
O=C(O)c1ccc(-n2nc(-c3ccccc3O)nc2-c2ccccc2O)cc1 68
NC(=O)c1ncn([C@@H]2O[C@H](CO)[C@@H](O)[C@H]2O)n1 68.2

Could you now consider this next compound?
Q: Form field: reported cell viability of CC(C)Oc1cc(Nc2nc(N[C@@H](C)c3ccc(F)cn3)ncc2Cl)n[nH]1
Result: 68.9

====

Tested on: NOMO1
method: cell viability relative to DMSO control; higher = less cytotoxic
details: HPLM + 10% dialyzed FBS; 48 h; 46.1 µM
What cell viability was measured for each of the following?
Answers are plain numbers, in %.

The examples below pair each entry with its known result.
COC[C@@H](NC(C)=O)C(=O)NCc1ccccc1 86.7
[NH2][Pt]([NH2])([Cl])[Cl] 94
O=C1Nc2ccc(Cl)cc2[C@@](C#CC2CC2)(C(F)(F)F)O1 79.8

Could you now consider this next compound?
Q: Form field: reported cell viability of Oc1ccc(/C=C/c2cc(O)cc(O)c2)cc1
Result: 10.4

====

System: NOMO1
method: cell viability relative to DMSO control; higher = less cytotoxic
details: HPLM + 10% dialyzed FBS; 48 h; 0.0632 µM
quantity.measured: cell viability (%)
One number for each entry, in %.

compound	target	cell viability / %
Cn1c(Nc2ccc(C(F)(F)F)cc2)nc2cc(Oc3ccnc(-c4nc(C(F)(F)F)c[nH]4)c3)ccc21	NOMO1	144
CN(C)CCc1c[nH]c2ccc(C[C@H]3COC(=O)N3)cc12	NOMO1	106

Provide the reported cell viability of each entry below, same order.
1. C[C@@H]1COCCN1C\2=C\C(=O)N\3CC[C@H](N(CC4=CN=CC(=C4)Cl)C3=N2)C(F)(F)F
2. CC(C)Oc1cc(Nc2nc(N[C@@H](C)c3ccc(F)cn3)ncc2Cl)n[nH]1
3. Cc1cc(Nc2nc(N[C@@H](C)c3ncc(F)cn3)ncc2Cl)n[nH]1

Result:
[124, 99, 113]

Provide the reported cell viability of each entry below, same order.
1. Oc1ccc(/C=C/c2cc(O)cc(O)c2)cc1
2. CC(C)[C@@H](C[S+](=O)([O-])C(C)C)N1C(=O)[C@@](C)(CC(=O)O)C[C@H](c2cccc(Cl)c2)[C@H]1c1ccc(Cl)cc1

Result:
[107, 140]

Provide the reported cell viability of each entry below, same order.
1. CCN(CC)CCCCNc1nc2cc(Cl)c(Cl)cc2nc1-c1ccc(-c2cccs2)s1
2. C[N+]1(C)[C@@H]2C[C@@H](OC(=O)[C@H](CO)c3ccccc3)C[C@H]1[C@@H]1O[C@@H]12.[Br-]
3. CC1(C)OC2CC3C4CC(F)C/5=C/C(=O)/C=C\C5(C)C4C(O)CC3(C)[C@@]2(O1)C(=O)CO (stereo not given in full)
4. CC(C)Nc1cc(C(F)(F)F)cc2nc(NC(=O)c3cccnc3)nn12
5. Cc1c(Cn2c(C)nc3c(C(=O)O)cc(N4CCOCC4)cc32)cccc1C(F)(F)F
6. CC(=O)O[C@@]1(CC[C@H]2[C@@H]3\C=C(C)/C4=C/C(=O)CC[C@]4(C)[C@H]3CC[C@]12C)C(C)=O
7. O=C(/C=C/c1cccc([S+](=O)([O-])Nc2ccccc2)c1)NO

Result:
1. 111
2. 105
3. 126
4. 123
5. 115
6. 109
7. 154

Provide the reported cell viability of each entry below, same order.
1. COc1cc2c(Oc3ccc(NC(=O)C4(C(=O)Nc5ccc(F)cc5)CC4)cc3F)ccnc2cc1OCCCN1CCOCC1
2. NC(=O)c1ncn([C@@H]2O[C@H](CO)[C@@H](O)[C@H]2O)n1
3. C[S+](=O)([O-])N(Cc1ccco1)CC(O)Cn1c2ccccc2c2ccccc21 (stereo not given)

Result:
1. 89.5
2. 112
3. 86.5
